- Species on record: Rattus norvegicus
- protocol.description: Open TG-GATES - Regimen: Single
- Format: toxicity, organism-based, Sprague-Dawley
- Set-up: regimen Single, gender Male, age 6 weeks
- test.parameters: in vivo, po, 0 mg/kg, 24 h, tissue Plasma, route gavage, dose level Control
reported.endpoint: K (meq/L)
Supply the numeric figure in meq/L, leaving out any unit text.

Completed entries (count: 10):
{"compound": "Cc1cnc(NC(=O)C2=C(O)c3ccccc3S(=O)(=O)N2C)s1", "K (meq/L)": 3.9}
{"compound": "COc1ccc(O)c(C(C)(C)C)c1.COc1ccc(O)cc1C(C)(C)C [BUTYLATED HYDROXYANISOLE]", "K (meq/L)": 4.3}
{"compound": "COc1ccc(Cl)cc1C(=O)NCCc1ccc(S(=O)(=O)NC(=O)NC2CCCCC2)cc1 [GLYBURIDE]", "K (meq/L)": 3.7}
{"compound": "O=P1(N(CCCl)CCCl)NCCCO1 (configuration not stated) [CYCLOPHOSPHAMIDE ANHYDROUS]", "K (meq/L)": 4.4}
{"compound": "Cn1cnc([N+](=O)[O-])c1Sc1ncnc2nc[nH]c12", "K (meq/L)": 3.9}
{"compound": "S=C=Nc1cccc2ccccc12 [1-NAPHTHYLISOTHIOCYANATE]", "K (meq/L)": 3.9}
{"compound": "CNCCC(Oc1ccc(C(F)(F)F)cc1)c1ccccc1.Cl (configuration not stated) [FLUOXETINE HYDROCHLORIDE]", "K (meq/L)": 5.1}
{"compound": "C=CCO", "K (meq/L)": 4}
{"compound": "O=C1NC(=O)C(c2ccccc2)(c2ccccc2)N1", "K (meq/L)": 4}
{"compound": "O=C1CN(/N=C/c2ccc(-c3ccc([N+](=O)[O-])cc3)o2)C(O)=N1", "K (meq/L)": 4.7}

Challenge: Which K value belongs to `Cc1cccc(Nc2cc(Cl)nc(SCC(=O)O)n2)c1C` ?
Response given: 4

Challenge: Which K value belongs to CS(=O)(=O)Nc1ccc([N+](=O)[O-])cc1Oc1ccccc1 [NIMESULIDE] ?
Response given: 4.9

====

Known Fbg of a selection of compounds
- Species: Rattus norvegicus
- protocol.description: Open TG-GATES - Regimen: Single
- Format: toxicity, organism-based, Sprague-Dawley
- Set-up: regimen Single, gender Male, age 6 weeks
- test.parameters: in vivo, po, 0 mg/kg, 24 h, tissue Blood, route gavage, dose level Control
Supply the numeric figure in mg/dL, leaving out any unit text.

Completed entries (count: 5):
{"compound": "O=C1NC(=O)C(c2ccccc2)(c2ccccc2)N1 [PHENYTOIN]", "reported.endpoint": "Fbg", "recorded.result": 273.4}
{"compound": "Cn1cnc([N+](=O)[O-])c1Sc1ncnc2nc[nH]c12 [AZATHIOPRINE]", "reported.endpoint": "Fbg", "recorded.result": 308.2}
{"compound": "C=CCO [ALLYL ALCOHOL]", "reported.endpoint": "Fbg", "recorded.result": 235.8}
{"compound": "COc1ccc(O)c(C(C)(C)C)c1.COc1ccc(O)cc1C(C)(C)C [BUTYLATED HYDROXYANISOLE]", "reported.endpoint": "Fbg", "recorded.result": 275.6}
{"compound": "Cc1cccc(Nc2cc(Cl)nc(SCC(=O)O)n2)c1C [PIRINIXIC ACID]", "reported.endpoint": "Fbg", "recorded.result": 285.8}

Challenge: Which Fbg value belongs to S=C=Nc1cccc2ccccc12 [1-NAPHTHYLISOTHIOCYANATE] ?
Response given: 222.8

Challenge: Which Fbg value belongs to Cc1cnc(NC(=O)C2=C(O)c3ccccc3S(=O)(=O)N2C)s1 [MELOXICAM] ?
Response given: 224.8

Challenge: Which Fbg value belongs to CS(=O)(=O)Nc1ccc([N+](=O)[O-])cc1Oc1ccccc1 [NIMESULIDE] ?
Response given: 201

Challenge: Which Fbg value belongs to COc1ccc(Cl)cc1C(=O)NCCc1ccc(S(=O)(=O)NC(=O)NC2CCCCC2)cc1 [GLYBURIDE] ?
Response given: 218.6

Challenge: Which Fbg value belongs to O=C1CN(/N=C/c2ccc(-c3ccc([N+](=O)[O-])cc3)o2)C(O)=N1 [DANTROLENE] ?
Response given: 207.4

====

- Organism: Rattus norvegicus
- protocol.description: Open TG-GATES - Regimen: Single
- Format: toxicity, organism-based, Sprague-Dawley
- Parameters: regimen Single, gender Male, age 6 weeks
- test.parameters: in vivo, po, 0 mg/kg, 3 h, tissue Liver, route gavage, dose level Control
reported.endpoint: LIVER (g)
Supply the numeric figure in g, leaving out any unit text.

Completed entries (count: 6):
{"compound": "O=C1NC(=O)C(c2ccccc2)(c2ccccc2)N1 [PHENYTOIN]", "LIVER [g]": 9.6}
{"compound": "CS(=O)(=O)Nc1ccc([N+](=O)[O-])cc1Oc1ccccc1 [NIMESULIDE]", "LIVER [g]": 9.7}
{"compound": "C=CCO [ALLYL ALCOHOL]", "LIVER [g]": 9.9}
{"compound": "O=C1CN(/N=C/c2ccc(-c3ccc([N+](=O)[O-])cc3)o2)C(O)=N1 [DANTROLENE]", "LIVER [g]": 9.3}
{"compound": "COc1ccc(Cl)cc1C(=O)NCCc1ccc(S(=O)(=O)NC(=O)NC2CCCCC2)cc1 [GLYBURIDE]", "LIVER [g]": 10.1}
{"compound": "COc1ccc(O)c(C(C)(C)C)c1.COc1ccc(O)cc1C(C)(C)C [BUTYLATED HYDROXYANISOLE]", "LIVER [g]": 9}

// below: LIVER requested for another compound
Challenge: Which LIVER value belongs to CNCCC(Oc1ccc(C(F)(F)F)cc1)c1ccccc1.Cl (stereo not given) [FLUOXETINE HYDROCHLORIDE] ?
Response given: 10.4

====

- Organism: Rattus norvegicus
- protocol.description: Open TG-GATES - Regimen: Single
- Type: toxicity, organism-based, Sprague-Dawley
- Design: regimen Single, gender Male, age 6 weeks
- test.parameters: in vivo, po, 0 mg/kg, 9 h, tissue Plasma, route gavage, dose level Control
Known TP of a selection of compounds
Supply the numeric figure in g/dL, leaving out any unit text.

{"compound": "Cc1cnc(NC(=O)C2=C(O)c3ccccc3S(=O)(=O)N2C)s1", "TP, g/dL": 5.5}
{"compound": "COc1ccc(O)c(C(C)(C)C)c1.COc1ccc(O)cc1C(C)(C)C [BUTYLATED HYDROXYANISOLE]", "TP, g/dL": 5.6}
{"compound": "C=CCO", "TP, g/dL": 5.6}
{"compound": "O=C1CN(/N=C/c2ccc(-c3ccc([N+](=O)[O-])cc3)o2)C(O)=N1", "TP, g/dL": 5.1}
{"compound": "Cc1cccc(Nc2cc(Cl)nc(SCC(=O)O)n2)c1C", "TP, g/dL": 5.2}

Challenge: Which TP value belongs to COc1ccc(Cl)cc1C(=O)NCCc1ccc(S(=O)(=O)NC(=O)NC2CCCCC2)cc1 [GLYBURIDE] ?
Response given: 5.4

Challenge: Which TP value belongs to S=C=Nc1cccc2ccccc12 [1-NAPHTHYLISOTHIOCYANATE] ?
Response given: 5.5

Challenge: Which TP value belongs to `Cn1cnc([N+](=O)[O-])c1Sc1ncnc2nc[nH]c12` ?
Response given: 5.3

Challenge: Which TP value belongs to `O=C1NC(=O)C(c2ccccc2)(c2ccccc2)N1` ?
Response given: 5.5

Challenge: Which TP value belongs to CS(=O)(=O)Nc1ccc([N+](=O)[O-])cc1Oc1ccccc1 [NIMESULIDE] ?
Response given: 5.3

Challenge: Which TP value belongs to CNCCC(Oc1ccc(C(F)(F)F)cc1)c1ccccc1.Cl (stereo unspecified) [FLUOXETINE HYDROCHLORIDE] ?
Response given: 5.3

====

Known Eos of a selection of molecules
- Organism: Rattus norvegicus
- protocol.description: Open TG-GATES - Regimen: Single
- Type: toxicity, organism-based, Sprague-Dawley
- Parameters: regimen Single, gender Male, age 6 weeks
- test.parameters: in vivo, po, 0 mg/kg, 24 h, tissue Blood, route gavage, dose level Control
Supply the numeric figure in %, leaving out any unit text.

Completed entries (count: 5):
{"molecule": "Cn1cnc([N+](=O)[O-])c1Sc1ncnc2nc[nH]c12", "result.units": "%", "Eos": 0.6}
{"molecule": "O=C1CN(/N=C/c2ccc(-c3ccc([N+](=O)[O-])cc3)o2)C(O)=N1", "result.units": "%", "Eos": 1.2}
{"molecule": "C=CCO", "result.units": "%", "Eos": 1}
{"molecule": "O=C1NC(=O)C(c2ccccc2)(c2ccccc2)N1", "result.units": "%", "Eos": 1}
{"molecule": "CNCCC(Oc1ccc(C(F)(F)F)cc1)c1ccccc1.Cl (stereo unspecified) [FLUOXETINE HYDROCHLORIDE]", "result.units": "%", "Eos": 1}

// below: Eos requested for another molecule
Challenge: Which Eos value belongs to COc1ccc(O)c(C(C)(C)C)c1.COc1ccc(O)cc1C(C)(C)C [BUTYLATED HYDROXYANISOLE] ?
Response given: 0.7
